Target: CDK9/CycT1 (Homo sapiens, UniProt P50750)
Construct: Recombinant full-length His-tagged human CDK9 and CycT1; His; purchased Invitrogen PV4131; host or cells: insect cells
Sequence (P50750 whole entry): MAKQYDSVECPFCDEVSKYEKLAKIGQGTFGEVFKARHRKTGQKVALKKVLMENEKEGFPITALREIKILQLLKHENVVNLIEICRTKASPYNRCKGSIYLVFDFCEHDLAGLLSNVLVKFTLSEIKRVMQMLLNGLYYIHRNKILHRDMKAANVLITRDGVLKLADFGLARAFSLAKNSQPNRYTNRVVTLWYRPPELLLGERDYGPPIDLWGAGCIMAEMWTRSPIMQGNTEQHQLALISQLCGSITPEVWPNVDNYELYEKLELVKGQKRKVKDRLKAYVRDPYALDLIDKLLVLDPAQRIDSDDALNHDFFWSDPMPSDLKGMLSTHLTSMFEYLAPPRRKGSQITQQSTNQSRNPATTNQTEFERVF
Sequence (O60563 whole entry partner): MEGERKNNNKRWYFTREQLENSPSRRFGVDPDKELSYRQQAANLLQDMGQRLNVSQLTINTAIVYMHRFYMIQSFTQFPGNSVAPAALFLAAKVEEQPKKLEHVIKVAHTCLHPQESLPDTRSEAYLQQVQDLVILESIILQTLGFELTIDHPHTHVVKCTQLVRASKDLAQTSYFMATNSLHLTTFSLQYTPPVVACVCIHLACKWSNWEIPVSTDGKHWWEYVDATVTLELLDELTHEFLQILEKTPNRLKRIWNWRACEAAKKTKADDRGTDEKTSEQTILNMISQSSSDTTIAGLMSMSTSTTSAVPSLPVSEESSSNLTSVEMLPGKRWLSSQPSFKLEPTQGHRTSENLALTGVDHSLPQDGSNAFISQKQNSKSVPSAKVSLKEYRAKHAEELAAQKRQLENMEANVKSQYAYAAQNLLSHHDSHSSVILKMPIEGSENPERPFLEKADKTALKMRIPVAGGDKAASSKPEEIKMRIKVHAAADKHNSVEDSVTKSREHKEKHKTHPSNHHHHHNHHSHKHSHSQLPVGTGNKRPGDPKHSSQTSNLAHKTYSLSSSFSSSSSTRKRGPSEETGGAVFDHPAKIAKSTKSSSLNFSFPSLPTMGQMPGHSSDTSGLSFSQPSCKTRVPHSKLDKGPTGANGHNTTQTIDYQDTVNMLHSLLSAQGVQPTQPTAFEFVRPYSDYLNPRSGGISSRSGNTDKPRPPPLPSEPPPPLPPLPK
Assay: CDK9/CycT1 kinase assay (TR-FRET, Method 1a)
Format: biochemical
Conditions: Method 1a, 10 μM ATP
Measure: IC50 (nM)

[I] CSCc1cc2nc(c1)OCCOc1cc(F)ccc1-c1cc(ncc1F)N2
[II] CCNC(=O)N=S(C)(=O)Cc1cc2nc(c1)OCCCOc1cc(F)ccc1-c1cc(ncc1F)N2 (racemic)
Identify the entry with the larger IC50. Options: I and II Give the chosen item's label as your response.
I

This collection of values is drawn from patent US9963464B2.
